tested on: K-562 leukemia; experiment: NCI tumour cell line growth inhibition, 48 h; in the data active = GI50 below about 0.43 µM; inactive = the rest
Pick one: active, inactive

Q: Outcome? COc1cccc2c1C(=O)c1c(O)c3c(c(O)c1C2=O)CC(O)(C(C)=O)CC3OC1CC(N)C(O)C(C)O1 (centres undefined)
Result: inactive

Q: Hi, sorry to bother you, what did the test record for "COc1cc(/C(Cl)=C/C=C/C(=O)c2c(C)[n+]([O-])c3ccc(Cl)cc3[n+]2[O-])cc(OC)c1OC" ?
Result: inactive

Q: Test call for this molecule, please: "CC1=NN(C(=O)c2ccccc2O)C(=O)/C1=C/c1ccc([N+](=O)[O-])cc1"
Result: active

Q: Hi team, can someone confirm the assay call for "C=CC(=O)Nc1ccc(Nc2nccc(-c3ccc(N4CCCC4)c(C#N)c3)n2)cc1" ?
Result: inactive
